test: Aqueous solubility of compound by shake flask method; type: physicochemical; details: water
Label Y when solubility thermodynamic is at or above 2000 µM; anything below gets N.

{"inputSmiles": "O=C(N[C@H](CO)Cc1ccc(O)c(O)c1)c1ccc(O)c(O)c1", "classification": "N"}
{"inputSmiles": "O=C(N[C@H](CO)Cc1ccc(O)c(O)c1)c1ccccc1", "classification": "N"}
{"inputSmiles": "O=C(N[C@H](CO)Cc1ccc(O)c(O)c1)c1cc(O)c(O)c(O)c1", "classification": "Y"}
{"inputSmiles": "O=C(Cc1cc(O)ccc1O)NCCc1ccc(O)c(O)c1", "classification": "N"}
{"inputSmiles": "O=C(Cc1ccc(O)c(O)c1)NCCc1ccc(O)c(O)c1", "classification": "Y"}

// switching to the query compound
Ask | Hello, I need to know if O=C(N[C@H](CO)Cc1ccc(O)c(O)c1)c1cc(O)ccc1O has measured solubility thermodynamic not below 2000 µM. Thanks!
Reply | Y
